# Tested on: U266B1 cell line
# TEST_DETAILS: CTG viability, 11x11 concentration matrix, Loewe synergy (multiple myeloma)
# STATED_CONDITIONS: inhibitor combined with compound 1-1, 11x11 matrix, 72 hours
QUANTITY: Mean Loewe synergy score, U266B1
The answer should be a number; do not append a unit.

CO[C@H]1C[C@@H]2CC[C@@H](C)[C@@](O)(O2)C(=O)C(=O)N2CCCC[C@H]2C(=O)O[C@H]([C@H](C)C[C@@H]2CC[C@@H](OCCO)[C@H](OC)C2)CC(=O)[C@H](C)/C=C(\C)[C@@H](O)[C@@H](OC)C(=O)[C@H](C)C[C@H](C)/C=C/C=C/C=C/1C
4.16
NC1(C(=O)N[C@@H](CCO)c2ccc(Cl)cc2)CCN(c2ncnc3[nH]ccc23)CC1
1.76
Nc1cc(C(F)(F)F)c(-c2cc(N3CCOCC3)nc(N3CCOCC3)n2)cn1
−0.19

Here is the next item to consider.
# input Bench note: what Mean Loewe synergy score, U266B1 did Cc1nc(NC(=O)N2CCC[C@H]2C(N)=O)sc1-c1ccnc(C(C)(C)C(F)(F)F)c1 show?
# output 0.13

====

# Tested on: KMS-34 cell line
# TEST_DETAILS: CTG viability, 11x11 concentration matrix, Loewe synergy (multiple myeloma)
# STATED_CONDITIONS: inhibitor combined with compound 1-1, 11x11 matrix, 72 hours
QUANTITY: Mean Loewe synergy score, KMS-34

Illustrative cases are given below, each with its answer.
CO[C@H]1C[C@@H]2CC[C@@H](C)[C@@](O)(O2)C(=O)C(=O)N2CCCC[C@H]2C(=O)O[C@H]([C@H](C)C[C@@H]2CC[C@@H](OCCO)[C@H](OC)C2)CC(=O)[C@H](C)/C=C(\C)[C@@H](O)[C@@H](OC)C(=O)[C@H](C)C[C@H](C)/C=C/C=C/C=C/1C
16.19
NC1(C(=O)N[C@@H](CCO)c2ccc(Cl)cc2)CCN(c2ncnc3[nH]ccc23)CC1
7.48
Cc1nc(NC(=O)N2CCC[C@H]2C(N)=O)sc1-c1ccnc(C(C)(C)C(F)(F)F)c1
7.85

Here is the next item to consider.
# input Bench note: what Mean Loewe synergy score, KMS-34 did Nc1cc(C(F)(F)F)c(-c2cc(N3CCOCC3)nc(N3CCOCC3)n2)cn1 show?
# output 5.94

====

# Tested on: CAL51 cell line
# TEST_DETAILS: CellTiter-Glo 2.0 cell viability, 7x7 combination dose response matrix, synergy scoring
# Assay type: cell-based
# STATED_CONDITIONS: CAL51; combined with Alpelisib 41-10000 nM; first compound 0.41-33.33 nM
Mean Bliss synergy score values, listed per item

Illustrative cases are given below, each with its answer.
Cc1cc(C)cc(NC(=O)OCc2ccc3c(c2)C(=O)N(C2CCC(=O)NC2=O)C3)c1 (centres unmarked)
10.76
O=C1CCC(N2Cc3ccc(COC(=O)Nc4ccc(F)c(OC(F)(F)F)c4)cc3C2=O)C(=O)N1 (centres unmarked)
13.24
Cc1ccc(NC(=O)OCc2ccc3c(c2)C(=O)N(C2CCC(=O)NC2=O)C3)cc1Cl (centres unmarked)
4.15
O=C1CCC(N2Cc3ccc(COC(=O)Nc4cccc(OC(F)(F)F)c4)cc3C2=O)C(=O)N1 (centres unmarked)
−0.17

Here is the next item to consider.
# input Hello, I am looking for reported Mean Bliss synergy score with CAL51 cell line for O=C1CCC(N2Cc3ccc(COC(=O)Nc4ccc(F)c(OC(F)F)c4)cc3C2=O)C(=O)N1 (centres unmarked) . Could you help?
# output 13.63

====

# Tested on: MCF7 cell line
# TEST_DETAILS: CellTiter-Glo 2.0 cell viability, 7x7 combination dose response matrix, synergy scoring
# Type: cell-based
# STATED_CONDITIONS: MCF7; combined with Alpelisib 41-10000 nM; first compound 0.41-33.33 nM
QUANTITY: Mean Loewe synergy score
The answer should be a number; do not append a unit.

Illustrative cases are given below, each with its answer.
Cc1ccc(NC(=O)OCc2ccc3c(c2)C(=O)N(C2CCC(=O)NC2=O)C3)cc1Cl (centres unmarked)
9.38
Cc1cc(C)cc(NC(=O)OCc2ccc3c(c2)C(=O)N(C2CCC(=O)NC2=O)C3)c1 (centres unmarked)
7.90
O=C1CCC(N2Cc3ccc(COC(=O)Nc4cccc(OC(F)(F)F)c4)cc3C2=O)C(=O)N1 (centres unmarked)
6.06
O=C1CCC(N2Cc3ccc(COC(=O)Nc4ccc(F)c(OC(F)(F)F)c4)cc3C2=O)C(=O)N1 (centres unmarked)
11.94

Here is the next item to consider.
# input Bench note: what Mean Loewe synergy score did O=C1CCC(N2Cc3ccc(COC(=O)Nc4ccc(F)c(OC(F)F)c4)cc3C2=O)C(=O)N1 (centres unmarked) show?
# output 10.32

====

# Tested on: MCF7 cell line
# TEST_DETAILS: CellTiter-Glo 2.0 cell viability, 7x7 combination dose response matrix, synergy scoring
# Format: cell-based
# STATED_CONDITIONS: MCF7; combined with Alpelisib 41-10000 nM; first compound 0.41-33.33 nM
QUANTITY: Mean Bliss synergy score
The answer should be a number; do not append a unit.

Illustrative cases are given below, each with its answer.
Cc1ccc(NC(=O)OCc2ccc3c(c2)C(=O)N(C2CCC(=O)NC2=O)C3)cc1Cl (centres unmarked)
3.23
O=C1CCC(N2Cc3ccc(COC(=O)Nc4cccc(OC(F)(F)F)c4)cc3C2=O)C(=O)N1 (centres unmarked)
−2.19
O=C1CCC(N2Cc3ccc(COC(=O)Nc4ccc(F)c(OC(F)F)c4)cc3C2=O)C(=O)N1 (centres unmarked)
17.71
O=C1CCC(N2Cc3ccc(COC(=O)Nc4ccc(F)c(OC(F)(F)F)c4)cc3C2=O)C(=O)N1 (centres unmarked)
14.93

Here is the next item to consider.
# input Bench note: what Mean Bliss synergy score did Cc1cc(C)cc(NC(=O)OCc2ccc3c(c2)C(=O)N(C2CCC(=O)NC2=O)C3)c1 (centres unmarked) show?
# output 9.41

====

# Test system: CAL51 cell line
# TEST_DETAILS: CellTiter-Glo 2.0 cell viability, 7x7 combination dose response matrix, synergy scoring
# Format: cell-based
# STATED_CONDITIONS: CAL51; combined with M2698 41-10000 nM; first compound 0.41-100 nM
QUANTITY: Mean Bliss synergy score

O=C1CCC(N2Cc3ccc(COC(=O)Nc4ccc(F)c(OC(F)F)c4)cc3C2=O)C(=O)N1 (stereo not shown)
30.29

# input Bench note: what Mean Bliss synergy score did Cc1cc(C)cc(NC(=O)OCc2ccc3c(c2)C(=O)N(C2CCC(=O)NC2=O)C3)c1 (stereo not shown) show?
# output 16.31

# input Bench note: what Mean Bliss synergy score did O=C1CCC(N2Cc3ccc(COC(=O)Nc4cccc(OC(F)(F)F)c4)cc3C2=O)C(=O)N1 (stereo not shown) show?
# output 7.95

# input Bench note: what Mean Bliss synergy score did O=C1CCC(N2Cc3ccc(COC(=O)Nc4ccc(F)c(OC(F)(F)F)c4)cc3C2=O)C(=O)N1 (stereo not shown) show?
# output 20.45

====

Mean Loewe synergy score, MM.1S values, listed per item
# Tested on: MM.1S cell line
# TEST_DETAILS: CTG viability, 11x11 concentration matrix, Loewe synergy (multiple myeloma)
# STATED_CONDITIONS: inhibitor combined with compound 1-1, 11x11 matrix, 72 hours
The answer should be a number; do not append a unit.

Cc1nc(NC(=O)N2CCC[C@H]2C(N)=O)sc1-c1ccnc(C(C)(C)C(F)(F)F)c1
3.44
Nc1cc(C(F)(F)F)c(-c2cc(N3CCOCC3)nc(N3CCOCC3)n2)cn1
1.48

# input Bench note: what Mean Loewe synergy score, MM.1S did NC1(C(=O)N[C@@H](CCO)c2ccc(Cl)cc2)CCN(c2ncnc3[nH]ccc23)CC1 show?
# output 2.63

# input Bench note: what Mean Loewe synergy score, MM.1S did CO[C@H]1C[C@@H]2CC[C@@H](C)[C@@](O)(O2)C(=O)C(=O)N2CCCC[C@H]2C(=O)O[C@H]([C@H](C)C[C@@H]2CC[C@@H](OCCO)[C@H](OC)C2)CC(=O)[C@H](C)/C=C(\C)[C@@H](O)[C@@H](OC)C(=O)[C@H](C)C[C@H](C)/C=C/C=C/C=C/1C show?
# output 6.7

====

# Test system: MCF7 cell line
# TEST_DETAILS: CellTiter-Glo 2.0 cell viability, 7x7 combination dose response matrix, synergy scoring
# Format: cell-based
# STATED_CONDITIONS: MCF7; combined with M2698 41-10000 nM; first compound 0.41-100 nM
Mean Loewe synergy score values, listed per item
The answer should be a number; do not append a unit.

Illustrative cases are given below, each with its answer.
O=C1CCC(N2Cc3ccc(COC(=O)Nc4ccc(F)c(OC(F)(F)F)c4)cc3C2=O)C(=O)N1 (stereo not shown)
12.31
Cc1cc(C)cc(NC(=O)OCc2ccc3c(c2)C(=O)N(C2CCC(=O)NC2=O)C3)c1 (stereo not shown)
7.79
O=C1CCC(N2Cc3ccc(COC(=O)Nc4ccc(F)c(OC(F)F)c4)cc3C2=O)C(=O)N1 (stereo not shown)
13.77

Here is the next item to consider.
# input Bench note: what Mean Loewe synergy score did O=C1CCC(N2Cc3ccc(COC(=O)Nc4cccc(OC(F)(F)F)c4)cc3C2=O)C(=O)N1 (stereo not shown) show?
# output 12.24

Data origin, for the record: patent US20260166045A1
